Taken from ChEMBL document CHEMBL1268901.

Tested on: Hepatitis B virus
ASSAY OVERVIEW: Antiviral activity against HBV infected in human HepG2(2.2.15) cells assessed as inhibition of viral replication at 10 ug/ml […] relative to control
Type: functional
MEASUREMENT SETUP: HepG2 2.2.15, 48 h
OBSERVED PROPERTY: inhibition at 10 µg/mL (%)
Field: numeric (%). Do not append units.

Worked examples follow.
STRUCTURE SMILES	OBSERVED PROPERTY	EXPERIMENTAL RESULT
O=c1[nH]c(=O)n([C@H]2C[C@H](F)[C@@H](CO)O2)cc1C(F)(F)F	inhibition at 10 µg/mL	20
O=c1[nH]c(=O)n([C@H]2C[C@H](F)[C@@H](CO)O2)cc1CO	inhibition at 10 µg/mL	58

// moving on: another record for inhibition at 10 µg/mL
Given O=c1[nH]c(=O)n([C@H]2C[C@@H](Cl)[C@@H](CO)O2)cc1F , respond with its inhibition at 10 µg/mL.
50
